Kindly state melting point for each of the entries shown.

Examples with their reported melting point follow.
Qu. # query: melting point of entry COC(=O)c1ccc(Nc2c(C(=O)NOCCO)ccc(F)c2F)c(F)c1 [Example 3]
Ans. 162 to 165 °C

Qu. # query: melting point of entry COC(=O)c1ccc(Nc2c(C(=O)NOCCO)ccc(F)c2F)cc1 [Example 1]
Ans. 158 to 160 °C

Qu. # query: melting point of entry COCC#Cc1ccc(Nc2c(C(=O)NOCCO)ccc(F)c2F)c(F)c1 [Example 5]
Ans. 121 to 123 °C

Qu. # query: melting point of entry O=C(O)c1ccc(Nc2c(C(=O)NOCCO)ccc(F)c2F)cc1 [Example 2]
Ans. 180 to 183 °C

Qu. # query: melting point of entry CC(=O)c1ccc(Nc2c(C(=O)NOCCO)ccc(F)c2F)c(Cl)c1 [Example 6]
Ans. 161.5 to 162.5 °C

# per-item lookup of melting point; items listed below
1. O=C(O)c1ccc(Nc2c(C(=O)NOCCO)ccc(F)c2F)c(F)c1 [Example 4]
2. CNC(=O)c1ccc(Nc2c(C(=O)NOCCO)ccc(F)c2F)c(F)c1 [Example 7]

Ans.
["196 to 200 °C", "197 to 200 °C"]
